ASSAY TARGET: baculovirus-expressed ALK (Homo sapiens)
Construct: host or cells: baculovirus expression system
Sequence (Q9UM73 19-1620): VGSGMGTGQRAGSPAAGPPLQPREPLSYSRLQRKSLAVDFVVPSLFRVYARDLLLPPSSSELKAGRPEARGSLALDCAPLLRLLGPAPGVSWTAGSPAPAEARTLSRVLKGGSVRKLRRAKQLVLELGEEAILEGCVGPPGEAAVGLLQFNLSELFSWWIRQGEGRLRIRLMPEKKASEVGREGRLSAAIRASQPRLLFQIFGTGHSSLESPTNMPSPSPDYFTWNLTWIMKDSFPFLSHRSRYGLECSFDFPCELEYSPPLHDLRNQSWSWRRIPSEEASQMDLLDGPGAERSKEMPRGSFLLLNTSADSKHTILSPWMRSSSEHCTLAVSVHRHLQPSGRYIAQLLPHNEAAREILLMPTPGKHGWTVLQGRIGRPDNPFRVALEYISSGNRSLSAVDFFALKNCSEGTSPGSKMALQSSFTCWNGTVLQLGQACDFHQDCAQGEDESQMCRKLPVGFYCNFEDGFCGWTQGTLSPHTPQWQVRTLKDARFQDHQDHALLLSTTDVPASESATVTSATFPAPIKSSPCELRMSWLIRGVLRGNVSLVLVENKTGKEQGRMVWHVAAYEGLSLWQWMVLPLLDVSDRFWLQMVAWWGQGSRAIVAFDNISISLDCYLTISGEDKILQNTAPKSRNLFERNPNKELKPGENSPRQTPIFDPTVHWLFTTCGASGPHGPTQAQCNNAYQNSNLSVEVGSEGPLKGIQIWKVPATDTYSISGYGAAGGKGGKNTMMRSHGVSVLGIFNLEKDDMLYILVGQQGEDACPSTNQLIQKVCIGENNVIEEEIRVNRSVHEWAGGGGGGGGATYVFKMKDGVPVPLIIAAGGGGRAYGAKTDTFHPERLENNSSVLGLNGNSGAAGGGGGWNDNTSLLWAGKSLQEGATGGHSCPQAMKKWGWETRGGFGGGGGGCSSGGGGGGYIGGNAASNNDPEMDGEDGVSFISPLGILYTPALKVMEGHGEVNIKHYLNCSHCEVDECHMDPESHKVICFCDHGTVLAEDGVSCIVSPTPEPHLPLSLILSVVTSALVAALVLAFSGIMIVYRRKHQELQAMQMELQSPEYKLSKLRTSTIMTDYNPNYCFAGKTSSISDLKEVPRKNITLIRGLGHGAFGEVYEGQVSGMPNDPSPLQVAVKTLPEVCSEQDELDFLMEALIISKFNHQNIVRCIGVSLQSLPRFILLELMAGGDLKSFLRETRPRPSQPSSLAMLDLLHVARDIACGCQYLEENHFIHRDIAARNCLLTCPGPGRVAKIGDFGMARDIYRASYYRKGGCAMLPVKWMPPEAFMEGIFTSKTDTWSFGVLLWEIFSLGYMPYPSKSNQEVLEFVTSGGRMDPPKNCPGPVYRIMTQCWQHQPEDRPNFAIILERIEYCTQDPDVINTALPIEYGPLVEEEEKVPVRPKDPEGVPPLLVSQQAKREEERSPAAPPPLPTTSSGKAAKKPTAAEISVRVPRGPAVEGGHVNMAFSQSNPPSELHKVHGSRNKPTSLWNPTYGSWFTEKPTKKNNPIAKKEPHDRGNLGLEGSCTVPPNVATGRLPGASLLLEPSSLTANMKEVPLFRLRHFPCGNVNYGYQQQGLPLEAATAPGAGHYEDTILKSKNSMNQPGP
MEASUREMENT PROTOCOL: ALK Kinase Assay (ELISA-type, time-resolved fluorescence)
Type: biochemical
RECORDED CONDITIONS: 1 μM ATP (Km level); read-out: ALK Activity (ALK Kinase Inhibition, IC50)
pIC50: −log10 of the molar value.
ASSAY ENDPOINT: pIC50

COc1cc2c(cc1Nc1ncc(Cl)c(Nc3ccccc3S(=O)(=O)N(C)C)n1)CCN(CC(F)F)CC2 [Example 822] : > 7.00
CCN1CCN(CC)c2cc(Nc3ncc(Cl)c(Nc4ccc5c(c4)N(CC)CCN(CC)C5)n3)ccc2C1 [Example 721] : > 7.00
CCN1CCN(CC)c2cc(Nc3ncc(Cl)c(Nc4ccc5c(c4)N(CC)CCN(CC)C5=O)n3)ccc2C1 [Example 722] : 6.00 to 7.00
COc1c(Nc2ncc(Cl)c(Nc3ccccc3S(=O)(=O)N3CCC(O)C3)n2)ccc2c1CCC(N1CCOCC1)CC2 (mixture of isomers) [Example 906] : > 7.00
